- Test system: 628569-122-R-J1-PDC complex spheroid viability
- Method notes: Anticancer human tumor 628569-122-R-J1-PDC patient-derived head and neck squamous carcinoma cell line growth inhibition [CLK]
- Condition label: second compound 0.0316 µM; first compound 0.1 µM; active compounds read low
For each record, check the reported viability, T/C: if it is below 90% write yes, else write no.

Query :: Answer whether the molecule CC1COCCN1c1cc(C2(S(C)(=N)=O)CC2)nc(-c2ccnc3[nH]ccc23)n1 (stereo not given) + CNC(=O)c1ccc(Nc2nc(OC3CCCC3)c3c(-c4ccc5nc(C)oc5c4)c[nH]c3n2)c(OC)c1 has viability, T/C strictly less than 90%
Result :: no

Query :: Answer whether the molecule COc1c(OCCCN2CCOCC2)ccc2c3n(c(=NC(=O)c4cnc(N)nc4)nc12)CCN3 + CN1CCN(c2cc(C(=O)Nc3cc4cc(-c5cnn(C)c5)ccc4cn3)ccn2)CC1 has viability, T/C strictly less than 90%
Result :: yes

Query :: Answer whether the molecule CC(=O)O[C@H]1C(=O)[C@@]2(C)[C@H]([C@H](OC(=O)c3ccccc3)[C@]3(O)C[C@H](OC(=O)[C@H](O)[C@@H](NC(=O)c4ccccc4)c4ccccc4)C(C)=C1C3(C)C)[C@]1(OC(C)=O)CO[C@@H]1C[C@@H]2O + CNC(=O)c1ccc(Nc2nc(OC3CCCC3)c3c(-c4ccc5nc(C)oc5c4)c[nH]c3n2)c(OC)c1 has viability, T/C strictly less than 90%
Result :: yes

Query :: Answer whether the molecule Cn1ncnc1[C@H]1c2n[nH]c(=O)c3cc(F)cc(c23)N[C@@H]1c1ccc(F)cc1 + CNC(=O)c1ccc(Nc2nc(OC3CCCC3)c3c(-c4ccc5nc(C)oc5c4)c[nH]c3n2)c(OC)c1 has viability, T/C strictly less than 90%
Result :: yes

Query :: Answer whether the molecule C=C(F)C(=O)N1CCN(c2nc(OCC3CCCN3C)nc3c2CCN(c2cccc4cccc(Cl)c24)C3)CC1CC#N (stereo not given) + CNC(=O)c1ccc(Nc2nc(OC3CCCC3)c3c(-c4ccc5nc(C)oc5c4)c[nH]c3n2)c(OC)c1 has viability, T/C strictly less than 90%
Result :: yes

----------
- Test system: 628569-122-R-J1-PDC complex spheroid viability
- Method notes: Anticancer human tumor 628569-122-R-J1-PDC cell line growth inhibition [CLK];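 further: spheroids exposed to agents for seven days before readout; 100% = DMSO vehicle control viability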
- Condition label: second compound 3.16 µM; first compound 3.16 µM; active compounds read low
- Excerpt: A high-throughput screen of multi-cell type tumor spheroids was designed to identify active combinations of […] and targeted small molecules. Complex spheroids include a stromal component modeled by human endothelial cells (HUVEC) and fibroblasts modeled by human mesenchymal stem cells (MSCs). […] Compounds. […] If the clinical Cmax for an agent had not been determined, the highest concentration tested was 10 microM. […]
// thresholds for viability, T/C classes: zone 1 (below 9%), zone 2 (9% to below 50%), zone 3 (50% or more)

Query :: Into which bin does this compound go? CC(Nc1ccc2c(c1)OCCn1cc(N3C(=O)OCC3C(F)F)nc1-2)C(N)=O (centres undefined) + CNC(=O)c1ccc(Nc2nc(OC3CCCC3)c3c(-c4ccc5nc(C)oc5c4)c[nH]c3n2)c(OC)c1
Result :: zone 2

Query :: Into which bin does this compound go? CCCS(=O)(=O)Nc1ccc(F)c(C(=O)c2c[nH]c3ncc(-c4ccc(Cl)cc4)cc23)c1F + CNC(=O)c1ccc(Nc2nc(OC3CCCC3)c3c(-c4ccc5nc(C)oc5c4)c[nH]c3n2)c(OC)c1
Result :: zone 3

Query :: Into which bin does this compound go? CC1(C)CCC(CN2CCN(c3ccc(C(=O)NS(=O)(=O)c4ccc(NCC5CCOCC5)c([N+](=O)[O-])c4)c(Oc4cnc5[nH]ccc5c4)c3)CC2)=C(c2ccc(Cl)cc2)C1 + CNC(=O)c1ccc(Nc2nc(OC3CCCC3)c3c(-c4ccc5nc(C)oc5c4)c[nH]c3n2)c(OC)c1
Result :: zone 2

Query :: Into which bin does this compound go? CC(=O)O[C@H]1C(=O)[C@@]2(C)[C@H]([C@H](OC(=O)c3ccccc3)[C@]3(O)C[C@H](OC(=O)[C@H](O)[C@@H](NC(=O)c4ccccc4)c4ccccc4)C(C)=C1C3(C)C)[C@]1(OC(C)=O)CO[C@@H]1C[C@@H]2O + CNC(=O)c1ccc(Nc2nc(OC3CCCC3)c3c(-c4ccc5nc(C)oc5c4)c[nH]c3n2)c(OC)c1
Result :: zone 3

Query :: Into which bin does this compound go? Nc1ccn(C2OC(CO)C(O)C2(F)F)c(=O)n1 (centres undefined) + CN1CCN(c2cc(C(=O)Nc3cc4cc(-c5cnn(C)c5)ccc4cn3)ccn2)CC1
Result :: zone 1

Query :: Into which bin does this compound go? COc1cccc2c1C(=O)c1c(O)c3c(c(O)c1C2=O)CC(O)(C(=O)CO)CC3OC1CC(N)C(O)C(C)O1 (centres undefined) + CNC(=O)c1ccc(Nc2nc(OC3CCCC3)c3c(-c4ccc5nc(C)oc5c4)c[nH]c3n2)c(OC)c1
Result :: zone 2

Query :: Into which bin does this compound go? C=C(F)C(=O)N1CCN(c2nc(OCC3CCCN3C)nc3c2CCN(c2cccc4cccc(Cl)c24)C3)CC1CC#N (centres undefined) + CNC(=O)c1ccc(Nc2nc(OC3CCCC3)c3c(-c4ccc5nc(C)oc5c4)c[nH]c3n2)c(OC)c1
Result :: zone 2

Query :: Into which bin does this compound go? CC(Nc1ccc2c(c1)OCCn1cc(N3C(=O)OCC3C(F)F)nc1-2)C(N)=O (centres undefined) + CN1CCN(c2cc(C(=O)Nc3cc4cc(-c5cnn(C)c5)ccc4cn3)ccn2)CC1
Result :: zone 1
